target: Urease subunit alpha/Urease subunit beta (Helicobacter pylori (strain ATCC 700392 / 26695) (Campylobacterpylori), UniProt P69996); assay: Inhibition of urease in Helicobacter pylori ATCC 43504 assessed as reduction in ammonia production using urea as substrate preincubated for 1.5 hrs by indophenol method; assay type: protein-complex assay, Helicobacter pylori NCTC 11637 = CCUG 17874 = ATCC 43504
Sequence (P69996 whole entry): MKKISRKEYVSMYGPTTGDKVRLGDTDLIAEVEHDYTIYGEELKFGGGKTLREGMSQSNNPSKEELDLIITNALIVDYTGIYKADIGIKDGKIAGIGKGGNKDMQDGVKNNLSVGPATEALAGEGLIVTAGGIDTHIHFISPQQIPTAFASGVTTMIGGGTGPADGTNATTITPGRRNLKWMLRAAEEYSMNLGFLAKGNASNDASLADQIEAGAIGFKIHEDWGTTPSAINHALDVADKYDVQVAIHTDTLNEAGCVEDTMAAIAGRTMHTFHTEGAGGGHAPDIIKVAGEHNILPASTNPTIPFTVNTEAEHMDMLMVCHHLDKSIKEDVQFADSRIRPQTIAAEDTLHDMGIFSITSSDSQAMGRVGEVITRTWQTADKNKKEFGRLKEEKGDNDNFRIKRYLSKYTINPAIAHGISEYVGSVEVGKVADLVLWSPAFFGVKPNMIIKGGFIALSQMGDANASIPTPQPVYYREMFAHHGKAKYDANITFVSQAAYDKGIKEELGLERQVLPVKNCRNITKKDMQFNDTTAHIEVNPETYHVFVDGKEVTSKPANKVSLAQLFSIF
Sequence (P14916 whole entry, further chain): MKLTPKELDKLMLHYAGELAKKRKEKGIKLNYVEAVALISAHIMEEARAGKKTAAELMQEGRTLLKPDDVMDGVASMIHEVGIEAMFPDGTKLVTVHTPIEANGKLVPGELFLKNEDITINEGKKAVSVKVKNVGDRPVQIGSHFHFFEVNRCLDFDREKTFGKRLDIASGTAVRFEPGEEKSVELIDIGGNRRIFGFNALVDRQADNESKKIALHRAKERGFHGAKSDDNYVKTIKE
With a cut-off of 20 µM, any IC50 strictly below it is called TRUE; any IC50 meeting it or above is called FALSE.

O=C(CCOc1ccc(Br)cc1)NO TRUE
O=C(COc1ccc(Cl)cc1Cl)NO FALSE

Does the reported IC50 of the following molecule sit strictly below 20 µM? O=C(CCOc1ccc(Cl)c(Cl)c1)NO TRUE

Is 20 µM strictly greater than the molecule's reported IC50? molecule: O=C(CCOc1ccc(Cl)cc1)NO TRUE

Is it true that IC50 reported for O=C(COc1ccc(Cl)c(Cl)c1)NO is less than 20 µM? TRUE

The values you see were collected from ChEMBL document CHEMBL4229433.
